Test system: KM12 colon
test-summary: NCI tumour cell line growth inhibition, 48 h
Provide the recorded GI50 for the entries that follow.

molecule: CC1(C)N=C(N)N=C(N)N1c1ccc(CCCC(=O)Nc2ccc(S(=O)(=O)F)cc2)cc1
assay-metric: GI50
readout-value: 3.54 µM
//
molecule: N#C[S-].[La+3].c1ccc(-c2ccccn2)nc1.c1ccc(-c2ccccn2)nc1.c1ccc(-c2ccccn2)nc1
assay-metric: GI50
readout-value: 51 µM

Parameters: items (list). Returns: GI50 for each item.
1. Cc1cc(NC(=O)NCc2ccc(N3C(N)=NC(N)=NC3(C)C)cc2)ccc1S(=O)(=O)F
2. COc1cc(N=Nc2cc(Cc3ccc(N(C)C)cc3)c(N)cc2N(C)C)c2ncccc2c1
3. [CH3][Sn]([CH3])([CH3])[S]C(=S)N1CCOCC1
4. Nc1ncn([C@H]2CC(O)[C@@H](CO)S2)c(=O)n1 (some centres undefined)
5. CCCCCCCCCCCC/C=C\CC[C@@H](O)[C@H](O)CC[C@H](O)[C@@H]1CC[C@@H](CCCCCCCC2=C[C@H](C)OC2=O)O1
6. COc1cc(C2CC(c3ccccc3)=NN2C=O)ccc1Oc1ccnc2cc(Cl)ccc12 (centres undefined)
7. CC(=O)ON(OCc1ccc2ccccc2c1)C(C)=O

Response:
["0.665 µM", "0.646 µM", "2.11 µM", "3.27 µM", "12.9 µM", "> 100 µM", "> 100 µM"]

* * *

Test system: M14 melanoma
test-summary: NCI tumour cell line growth inhibition, 48 h; in the data active = GI50 below about 0.43 µM; inactive = the rest
Outcome field: choose from yes = active, no = inactive

molecule: CN1CCCCC1CCN1c2ccccc2Sc2ccc(Br)cc21 (configuration not stated)
assigned-label: no
//
molecule: CCn1cc(C(=O)O)c(=O)c2cc(F)c(N3CCN(S(=O)(=O)c4ccc(Cl)cc4Cl)CC3)cc21
assigned-label: no
//
molecule: O=c1c(I)c[nH]cc1I
assigned-label: no
//
molecule: CC(=O)ON(OCc1ccc2ccccc2c1)C(C)=O
assigned-label: no

Request: What was the test verdict on `CCCC(=O)Nc1cc(C(=O)N2C[C@H]3C[C@@]34C2=CC(=O)c2[nH]cc(C)c24)n(COC)c1` ?
Response: yes

Request: What did the test return for `CNC(=O)CCN1CCN(CC/C=C2\c3ccccc3Sc3ccc(Cl)cc32)CC1` ?
Response: no

Request: Test call, this molecule: COc1ccc(-c2nsc3c2NC(=O)CC3c2ccsc2)cc1 (configuration not stated)
Response: yes

* * *

Test system: HS 578T breast
test-summary: NCI tumour cell line growth inhibition, 48 h
assay-metric: TGI

Guide cases for TGI, answers given:
molecule: CSc1c(C(C)=O)c(O)n(-c2ccc(C)cc2)c(=O)c1C#N
TGI: > 100 µM

molecule: NC(=NCCCCCCN=C(N)/N=C(\N)Nc1ccc(Cl)cc1)/N=C(\N)Nc1ccc(Cl)cc1
TGI: 4.73 µM

molecule: COc1cc2ncn(-c3cc(OCc4ccccc4C(F)(F)F)c(C(N)=O)s3)c2cc1OC
TGI: > 8.59 µM

Please supply TGI for each of the following items, keeping them in order.
1. COC(=O)c1c(C)nc(C)c2c1C(=O)C(Br)=C(NCc1ccccc1)C2=O
2. O=C(/C=C/c1ccc(OCc2ccccc2)cc1)NCc1ccc(C(=O)NCCc2ccccc2)cc1

Response:
1. > 100 µM
2. > 100 µM

Give TGI for each listed item.
1. COCN1C(=O)[C@@H]2CCCN2C(=O)c2ccc(N)cc21
2. Clc1ccc2c(NCCNc3nc(N4CCOCC4)nc4ccccc34)ccnc2c1
3. OCCCN=C1CCCCC1
4. NC(Cc1ccccc1)C(=O)OCN1C(=O)C2C3C=CC(C2C1=O)C1C(=O)N(COC(=O)C(N)Cc2ccccc2)C(=O)C31 (stereo not given)
5. O=C1NC(N2CCCC(CO)C2)=N/C1=C\c1cccs1 (stereo not given)

Response:
["> 100 µM", "7.71 µM", "> 100 µM", "> 100 µM", "> 100 µM"]

* * *

What TGI was measured for each of the following?
Test system: SK-MEL-28 melanoma
test-summary: NCI tumour cell line growth inhibition, 48 h

Example cases with answers are listed next.
compound: C=CCNC(=S)NNC(=O)c1c(C)nc2sccn12
TGI: > 100 µM

compound: CCN(CC)CCOC(COc1cc(C)cc(C)c1)COc1cc(C)cc(C)c1
TGI: 3.77 µM

compound: OC12CCC3(OC4CCCCO4)c4ccccc4C3C1c1ccccc12 (stereo not given)
TGI: > 100 µM

Provide TGI for all items below, preserving their order.
1. OCCc1ccsc1-c1sc(-c2cc(CCO)c(-c3sc(-c4cc(CCO)c(-c5sccc5CCO)s4)cc3CCO)s2)cc1CCO
2. N[C@@H]1CCCN(c2c(Br)cnc3[nH]cc(NC(=O)C4CC4)c23)C1
3. c1ccc(C(Oc2noc3ccccc23)c2ccccc2)cc1

Response:
1: 3.27 µM; 2: > 100 µM; 3: > 100 µM

Each compound below has a reported value. Please supply its TGI.
1. CN(CCN)[C@H](CSSC[C@@H](c1ccccc1O)N(C)CCN)c1ccccc1O
2. Brc1ccc2[nH]c3c(C4=NCCC4)nccc3c2c1

Response:
33.5 µM
> 100 µM

For every item below, please supply its TGI.
1. CCn1c(-c2nonc2N)nc2ccccc21
2. Cc1nn2c(=O)c([N+](=O)[O-])c(/C=C/c3ccc(F)cc3)nc2s1
3. CC(=O)c1csc2c1C(=O)c1ccccc1C2=O
4. N=C(N)c1ccc2oc3ccc(C(=N)N)cc3c(=O)c2c1
5. CC(C)=CCC[C@@H](C)C1=C(O)C(N[C@H](C)c2ccccc2)=C(C)C(=O)C1=O

Response:
> 25 µM
19.7 µM
5.07 µM
> 100 µM
> 46.7 µM

* * *

For each of the molecules below, state its TGI.
Tested on: NCI-H522 lung
test-summary: NCI tumour cell line growth inhibition, 48 h

# annotated cases, reported TGI shown
molecule: CC(=O)CCC1(c2ccccc2)OC(=O)C(C#N)=C1c1ccccc1 (stereo not given)
measurement-target: NCI-H522 lung
TGI: 4.53 µM

molecule: CCSC[C@@H]1C[C@](O)(c2ccccc2)[C@@H](c2ccccc2)O1
measurement-target: NCI-H522 lung
TGI: > 100 µM

molecule: CCCCNc1ncnc2c1cnn2-c1ccccc1
measurement-target: NCI-H522 lung
TGI: 9.94 µM

molecule: c1ccc(C(Oc2noc3ccccc23)c2ccccc2)cc1
measurement-target: NCI-H522 lung
TGI: > 100 µM

molecule: COc1cc2c(c(OC)c1OC)C(=O)c1c(O)cc(C)c(OC)c1C2=O
measurement-target: NCI-H522 lung
TGI: > 100 µM

molecule: O=S(=O)(c1ccccc1)N1CCCC(c2ccccc2)CC1 (stereo not given)
measurement-target: NCI-H522 lung
TGI: > 100 µM

For the 3 molecules below, give their TGI values.
1. CO[C@@]12C[C@H](CNC(=O)c3ccc[nH]3)O[C@@H]1NC(=O)N2
2. COC1OC2COC(=O)c3cc(O)c(O)c(O)c3-c3c(cc(O)c(O)c3O)C(=O)OC2C(O)C1O (stereo not given)
3. Cn1c(=O)c(-c2ccccc2Cl)cc2cnc(NC3CCOCC3)nc21

Response:
1. > 100 µM
2. > 100 µM
3. > 25 µM

TGI recorded for this molecule, COc1ccc(-c2nsc3c2NC(=O)CC3c2ccsc2)cc1 (stereo not given) , is 4.25 µM

* * *

Assignment: determine reported TGI for the given compounds.
Test system: SF-539 CNS
test-summary: NCI tumour cell line growth inhibition, 48 h
One number for each entry, in µM.

compound: Clc1ccc2c(NCCNc3nc(N4CCOCC4)nc4ccccc34)ccnc2c1
unit-spec: µM
TGI: 3.34
//
compound: COc1cc(C2CC(c3ccccc3)=NN2C=O)ccc1Oc1ccnc2cc(Cl)ccc12 (stereo not given)
unit-spec: µM
TGI: 77.9

The following compounds each have a reported value; give each one's TGI.
1. CC[C@H](C)[C@H](NC(=O)[C@H]1CCCCN1C)C(=O)N(C)[C@H](CCc1nc(C(=O)N[C@@H](Cc2ccccc2)C[C@H](C)C(=O)O)cs1)C(C)C
2. Oc1c(Br)cc2c(c1Br)-c1c(c(O)c3c4c1=NCCC=4C=N3)NCC2

Response:
1: 1.14; 2: 26.5

* * *

Test system: COLO 205 colon
test-summary: NCI tumour cell line growth inhibition, 48 h
Give measured TGI for each item. Keep answers brief.

compound: CCOC(=O)C(C)c1nc2cc(F)c(F)cc2[nH]c1=O (stereo not drawn)
measurement-target: COLO 205 colon
TGI: > 100 µM
--
compound: CNC(=O)CCN1CCN(CC/C=C2\c3ccccc3Sc3ccc(Cl)cc32)CC1
measurement-target: COLO 205 colon
TGI: 6 µM
--
compound: Clc1ccc(C=Nc2ccc(-c3nc4ccccc4[nH]3)cc2)cc1
measurement-target: COLO 205 colon
TGI: > 100 µM
--
compound: O=C1NC(N2CCCC(CO)C2)=N/C1=C\c1cccs1 (stereo not drawn)
measurement-target: COLO 205 colon
TGI: > 100 µM
--
compound: Cc1ccc(NCCNCC(C)(C)O)c2c(=O)c3ccc(Cl)cc3sc12
measurement-target: COLO 205 colon
TGI: 2.92 µM

Hey, can you go through the list below and give me TGI for every item?
1. COC(=O)c1c(C(=O)OC)c(-c2ccccc2)n(-c2ccccc2)c(=O)c1-c1ccccc1
2. S=c1ssnc1-c1cc2ccccc2o1
3. Oc1c(Br)cc2c(c1Br)-c1c(c(O)c3c4c1=NCCC=4C=N3)NCC2
4. Nc1nc(Sc2ccc([N+](=O)[O-])c3nonc23)c2[nH]cnc2n1
5. CCOc1ccc2nc(NC(=O)C(=O)C3C(=O)C(CC4C(=O)c5ccccc5C4=O)C(=O)CC3(C)C)sc2c1 (stereo not drawn)
6. COC(=O)Cc1cc(=O)n2c3ccccc3n(C)c2c1C#N

Response:
1: > 100 µM; 2: 39.5 µM; 3: 11.7 µM; 4: 3.11 µM; 5: > 100 µM; 6: > 100 µM

Value sought for every listed compound: TGI.
1. CN(C)C(=O)C(F)(F)C(c1ccccc1)C1C(=O)N(C)C(=O)N(C)C1=O (stereo not drawn)
2. O=C(N/C(=C\c1ccc([N+](=O)[O-])cc1)c1nc2ccccc2s1)c1ccccc1

Response:
1. > 100 µM
2. > 100 µM

The measured values listed here are drawn from PubChem BioAssay (NCI).
